Test system: DU-145 prostate
Experiment: NCI-60 one-dose screen, 48 h (100 = growth as untreated, 0 = no growth, -100 = all killed)
Conditions: 10 µM unless noted
About 83,000 compounds went through this panel and 20% of them were active in at least one assay; those are over-represented in the sample as a whole.
# if measured growth < 60%: TRUE  # else: FALSE

For orientation, consider the following solved cases.
c1ccc2c(c1)CCCc1nnc3nc4ccccc4n3c1-2 = TRUE
Cc1c(CN)cc(-c2ccc(Cl)cc2)n1-c1ccccc1 = FALSE
Ic1ccccc1I = FALSE

[Q] Would you kindly verify if growth of Clc1c(Cl)[n+](Cc2ccc3ccccc3c2)cn1Cc1ccc2ccccc2c1 is strictly less than 60%?
[A] TRUE

[Q] For CC1=CC(c2ccco2)=C2C(N)=NNC2N1 (stereo not given) then?
[A] FALSE

[Q] For O=C(Nc1ccccc1O)c1ccc(CNC(=O)c2ccsc2Nc2ccnc(C(F)(F)F)c2)cc1 then?
[A] TRUE

[Q] For COc1ccc(C2CC(c3cc(OC)c(OC)c(OC)c3)=NO2)cc1OCCCCOc1cc2c(cc1OC)C(=O)N1CCC[C@H]1C=N2 (stereo not given in full) then?
[A] TRUE

[Q] For COc1ccc(C(=O)/C=C/c2ccc(N3CCCCC3)cc2)cc1OC then?
[A] FALSE

[Q] For CN1CCN(Cc2ccc(NC(=O)c3cncc(C#Cc4cnc(N)c5ncccc45)c3)cc2C(F)(F)F)CC1 then?
[A] TRUE
